Please provide measured Stability for the entries that follow.
# Test system: Liver
# Protocol text: Stability of the compound in mouse liver microsomes assessed as compound remaining
# Type: ADME, microsome
Answers are plain numbers, in %.

Worked examples, 8 compounds total:
(Q) Could you tell me which Stability is on file for `[2H]C1([2H])OC(C)(C)C(=O)N(c2cc(-c3cc(Cl)c4c(N)ncnn34)ccc2C#N)C1([2H])[2H]` ?
(A) 58

(Q) Give its Stability value. Item: `C[C@H]1COC(C)(C)C(=O)N1c1cc(-c2cc(C(F)(F)F)c3c(N)ncnn23)ccc1C#N`
(A) 1

(Q) Quick one: Stability for `C[C@H]1CN(c2cc(-c3cc(C(F)(F)F)c4c(N)ncnn34)ccc2C#N)C(=O)C(C)(C)O1` ?
(A) 24

(Q) Suppose we examine the compound `C[C@@H]1COC(C)(C)C(=O)N1c1cc(-c2cc(Cl)c3c(N)ncnn23)ccc1C#N` ; what Stability value has been reported?
(A) 28

(Q) Recorded Stability for `CC[C@H]1COC(C)(C)C(=O)N1c1cc(-c2cc(Cl)c3c(N)ncnn23)ccc1C#N` , please?
(A) 1

(Q) Bench note: what Stability did `C[C@@H]1CN(c2cc(-c3cc(Cl)c4c(N)ncnn34)ccc2C#N)C(=O)C(C)(C)O1` show?
(A) 43

(Q) Name the reported Stability value associated with the compound `C[C@H]1OC(C)(C)C(=O)N(c2cc(-c3cc(C(F)(F)F)c4c(N)ncnn34)ccc2C#N)[C@H]1C`
(A) 4

(Q) For the compound `C[C@H]1CN(c2cc(-c3cc(Cl)c4c(N)ncnn34)ccc2C#N)C(=O)C(C)(C)O1` , what Stability is on record?
(A) 0

---
(Q) For the compound `[2H]C1([2H])OC(C)(C)C(=O)N(c2cc(-c3cc(C(F)(F)F)c4c(N)ncnn34)ccc2C#N)C1([2H])[2H]` , what Stability is on record?
(A) 74

---

# System: Liver
# Protocol text: Stability of the compound in human liver microsomes assessed as compound remaining
# Format: ADME, microsome
Observed property: Stability (%)
One number for each entry, in %.

(Q) Quick one: Stability of `[2H]C1([2H])OC(C)(C)C(=O)N(c2cc(-c3cc(C(F)(F)F)c4c(N)ncnn34)ccc2C#N)C1([2H])[2H]` ?
(A) 91

(Q) I'd like to know its Stability. The compound in question is `C[C@H]1OC(C)(C)C(=O)N(c2cc(-c3cc(C(F)(F)F)c4c(N)ncnn34)ccc2C#N)[C@H]1C`
(A) 50

(Q) Stability lookup needed for `[2H]C1([2H])OC(C)(C)C(=O)N(c2cc(-c3cc(Cl)c4c(N)ncnn34)ccc2C#N)C1([2H])[2H]` , thanks.
(A) 94

(Q) Param item = `C[C@H]1CN(c2cc(-c3cc(C(F)(F)F)c4c(N)ncnn34)ccc2C#N)C(=O)C(C)(C)O1` ; retrieve measured Stability.
(A) 85

(Q) Reported Stability for `C[C@@H]1COC(C)(C)C(=O)N1c1cc(-c2cc(Cl)c3c(N)ncnn23)ccc1C#N` : what is it?
(A) 92

I need Stability for every entry listed below, if you could help.
1. C[C@H]1CN(c2cc(-c3cc(Cl)c4c(N)ncnn34)ccc2C#N)C(=O)C(C)(C)O1
2. CC[C@H]1COC(C)(C)C(=O)N1c1cc(-c2cc(Cl)c3c(N)ncnn23)ccc1C#N
3. C[C@@H]1CN(c2cc(-c3cc(Cl)c4c(N)ncnn34)ccc2C#N)C(=O)C(C)(C)O1
4. C[C@H]1COC(C)(C)C(=O)N1c1cc(-c2cc(C(F)(F)F)c3c(N)ncnn23)ccc1C#N

(A)
1: 18; 2: 53; 3: 61; 4: 23
